target: human recombinant Yes [a.a. 2–543 (end)] (Homo sapiens, UniProt P07947); construct: human recombinant Yes [a.a; 2–543 (end)]; purchased BPS Bioscience 40488; test: ADP-Glo kinase assay, inhibition rates of Yes phosphorylation activity (first and second screening); assay type: biochemical; conditions: first screening; mean of n = 4 wells; 10 μmol L−1 compound
Sequence (P07947 2-543): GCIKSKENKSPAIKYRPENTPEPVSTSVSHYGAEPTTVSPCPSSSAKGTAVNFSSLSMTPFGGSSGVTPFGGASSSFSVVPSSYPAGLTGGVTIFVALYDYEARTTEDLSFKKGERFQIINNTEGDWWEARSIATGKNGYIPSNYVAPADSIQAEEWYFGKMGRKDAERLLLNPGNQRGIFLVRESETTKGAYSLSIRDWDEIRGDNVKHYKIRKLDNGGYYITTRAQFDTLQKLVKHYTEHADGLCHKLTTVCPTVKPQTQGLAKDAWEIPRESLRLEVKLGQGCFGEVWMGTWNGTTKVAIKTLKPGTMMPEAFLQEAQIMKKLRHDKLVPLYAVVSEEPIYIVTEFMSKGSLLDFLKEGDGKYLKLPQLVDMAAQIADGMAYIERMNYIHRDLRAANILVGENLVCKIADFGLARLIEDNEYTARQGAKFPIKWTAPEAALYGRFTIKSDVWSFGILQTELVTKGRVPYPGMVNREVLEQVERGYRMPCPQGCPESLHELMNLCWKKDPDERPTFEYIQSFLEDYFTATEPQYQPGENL

{"columns": ["molecule", "target-or-system", "unit-spec", "First screening IR (inhibition rate)"],
 "data": [
  ["CCCn1c(=O)c2ccccc2n2c(=S)n(CN3CCC(C(=O)Nc4cc(C)ccn4)CC3)nc12 [Compound Z573186768]", "human recombinant Yes [a.a. 2–543 (end)] (Homo sapiens, UniProt P07947)", "%", -4],
  ["O=C(CSc1nnc(-c2c[nH]c3ccccc23)n1-c1ccc(Cl)cc1)N1CCNC1=O [Compound Z19511505]", "human recombinant Yes [a.a. 2–543 (end)] (Homo sapiens, UniProt P07947)", "%", 13],
  ["Cc1cc(C)c(NC(=O)C2CCN(c3ncnc4sc(C)c(C)c34)CC2)c(C)c1 [Compound Z57042877]", "human recombinant Yes [a.a. 2–543 (end)] (Homo sapiens, UniProt P07947)", "%", 0],
  ["Cc1cc(NCc2nnc(C)n2C)c(C(N)=O)cc1F [Compound Z1618388683]", "human recombinant Yes [a.a. 2–543 (end)] (Homo sapiens, UniProt P07947)", "%", -35],
  ["CCCCCn1c(-c2ccc(Sc3ccc(C)cc3)c([N+](=O)[O-])c2)nc2c1c(=O)[nH]c(=O)n2CCCC [Compound Z50141536]", "human recombinant Yes [a.a. 2–543 (end)] (Homo sapiens, UniProt P07947)", "%", -20],
  ["CCN1CCN(Cc2ccc(NC(=O)C3CCCN3C(=O)c3ccc4ccccc4c3O)cc2)CC1 (stereo not shown) [Compound Z992207680]", "human recombinant Yes [a.a. 2–543 (end)] (Homo sapiens, UniProt P07947)", "%", 51],
  ["CC(C)(C(=O)N1CCN(C(=O)C2CCC(=O)NC2)CC1)c1ccccc1 (stereo not shown) [Compound Z645877938]", "human recombinant Yes [a.a. 2–543 (end)] (Homo sapiens, UniProt P07947)", "%", -20],
  ["Cc1cc(NCc2cn3cccnc3n2)c(C(N)=O)cc1F [Compound Z1430011273]", "human recombinant Yes [a.a. 2–543 (end)] (Homo sapiens, UniProt P07947)", "%", 12],
  ["Cc1nc(-c2cc(C(=O)N3CCCC(n4ccnc4)C3)co2)cs1 (stereo not shown) [Compound Z1102775620]", "human recombinant Yes [a.a. 2–543 (end)] (Homo sapiens, UniProt P07947)", "%", -5],
  ["CCC(C)NC(=O)c1ccc2c(=O)n(CC(C)C)c3nnc(SCC(=O)Nc4cccc(C)c4)n3c2c1 (stereo not shown) [Compound Z1157725046]", "human recombinant Yes [a.a. 2–543 (end)] (Homo sapiens, UniProt P07947)", "%", 0],
  ["C=CCNc1nc(C(=O)OCc2csc(-c3ccccc3)n2)cs1 [Compound Z17964966]", "human recombinant Yes [a.a. 2–543 (end)] (Homo sapiens, UniProt P07947)", "%", 18],
  ["FC(F)(F)c1ccnc(Nc2ccc3c(c2)OCO3)n1 [Compound Z285674740]", "human recombinant Yes [a.a. 2–543 (end)] (Homo sapiens, UniProt P07947)", "%", 21],
  ["CN(CC1CC1)c1ccc(S(C)(=O)=O)cc1S(C)(=O)=O [Compound Z666145136]", "human recombinant Yes [a.a. 2–543 (end)] (Homo sapiens, UniProt P07947)", "%", 52],
  ["Cc1ccc(S(=O)(=O)N2CCN(S(=O)(=O)c3ccc(C)c(C)c3)CC2)cc1C [Compound Z45415135]", "human recombinant Yes [a.a. 2–543 (end)] (Homo sapiens, UniProt P07947)", "%", -5],
  ["COc1ccc(/C=C2/CC(C)Cc3c2nc2ccccc2c3C(=O)O)c(OC)c1 (stereo not shown) [Compound Z46107821]", "human recombinant Yes [a.a. 2–543 (end)] (Homo sapiens, UniProt P07947)", "%", -10],
  ["O=C(NCc1cn2ccsc2n1)C1CC1c1ccccc1C(F)(F)F (stereo not shown) [Compound Z333170264]", "human recombinant Yes [a.a. 2–543 (end)] (Homo sapiens, UniProt P07947)", "%", -2]
]}
